Test: qHTS Assay for Lipid Storage Modulators (AID 1519)
Details: Drosophila S3 cells, BODIPY lipid droplet/cell ratio, laser cytometry; measured here: cell count channel max response; cells loaded with oleic acid
Procedure: NIH Molecular Libraries Probe Production Centers Network [MLPCN] NIH Chemical Genomics Center [NCGC] Assay Submitter (PI): Beller, Mathias; Max-Planck-Institut fur Biophysikalische Chemie […] We dispensed 4 uL of cells at 1.25 x 10^6 cells/mL into LoBase Aurora COC 1,536-well plates (black walled, clear bottom) with a bottle-valve solenoid-based dispenser (Aurora) to obtain 5,000 cells/well. […] The ratio of the total intensity in PMT channel 1 over total intensity of channel 3 was also calculated. […]
Records with an inconclusive call do not appear.
Listing of entries alongside the reported max response.
Provide only the numeric value, understood in %.

Example entries begin here.
CCCCCCCCCC(=O)O[C@H](CC(=O)O)C[N+](C)(C)C ... -0.114
COc1ccccc1NC(=O)Nc1nc(-c2cccnc2)nc2ccccc12 ... -30.6
CCCCCCCCCCCC(=O)O[C@H](CC(=O)O)C[N+](C)(C)C ... -5.13
N[C@@H](Cn1cc(I)c(=O)n(Cc2ccc(C(=O)O)cc2)c1=O)C(=O)O ... 4.58

Ask: Name the recorded max response of the molecule listed here: N[C@H](C(=O)O)C1[C@H](C(=O)O)[C@H]1C(=O)O (some centres not stated)
Result: -12.3

Ask: Name the recorded max response of the molecule listed here: NCCC(=O)O
Result: -17.6

Ask: Name the recorded max response of the molecule listed here: O=S(=O)(NCCNC/C=C/c1ccc(Br)cc1)c1cccc2cnccc12
Result: -29.8

Ask: Name the recorded max response of the molecule listed here: CCCN=C(N)NCCC[C@H](N)C(=O)O
Result: -18.5

Ask: Name the recorded max response of the molecule listed here: N[C@H](C(=O)O)c1cccc(O)c1
Result: 12.7
